Recorded pIC50 for the following molecules
Target sequence: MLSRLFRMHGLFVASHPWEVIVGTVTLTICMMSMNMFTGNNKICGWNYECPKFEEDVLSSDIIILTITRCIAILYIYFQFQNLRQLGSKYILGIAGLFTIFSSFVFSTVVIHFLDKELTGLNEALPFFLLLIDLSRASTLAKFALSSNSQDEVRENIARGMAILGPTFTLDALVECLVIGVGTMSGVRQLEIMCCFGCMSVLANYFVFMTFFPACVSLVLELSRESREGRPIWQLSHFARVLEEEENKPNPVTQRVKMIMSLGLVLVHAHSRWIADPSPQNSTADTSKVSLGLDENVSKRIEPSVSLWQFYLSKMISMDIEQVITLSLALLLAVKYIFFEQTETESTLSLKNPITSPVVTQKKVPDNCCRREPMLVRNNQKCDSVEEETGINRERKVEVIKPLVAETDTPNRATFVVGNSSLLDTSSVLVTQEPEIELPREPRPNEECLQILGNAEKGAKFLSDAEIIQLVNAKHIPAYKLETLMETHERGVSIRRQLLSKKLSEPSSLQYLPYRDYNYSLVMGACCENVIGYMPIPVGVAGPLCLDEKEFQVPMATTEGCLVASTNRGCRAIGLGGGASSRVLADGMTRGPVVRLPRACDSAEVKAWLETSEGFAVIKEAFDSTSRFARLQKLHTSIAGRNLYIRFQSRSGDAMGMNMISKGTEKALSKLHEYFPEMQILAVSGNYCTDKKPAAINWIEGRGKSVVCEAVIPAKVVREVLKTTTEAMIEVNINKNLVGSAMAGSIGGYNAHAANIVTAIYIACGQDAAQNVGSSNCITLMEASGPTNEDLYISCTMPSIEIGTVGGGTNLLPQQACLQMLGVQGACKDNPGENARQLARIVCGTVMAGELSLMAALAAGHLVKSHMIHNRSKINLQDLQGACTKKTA
To interpret pIC50, take it as minus log10 of a concentration measured in moles per litre.

Consider the reported pIC50 for these molecules:
Cc1cc(-c2c(-c3ccc(F)cc3)nc(C(C)C)n2/C=C/[C@@H](O)C[C@@H](O)CC(=O)O)cc(C)c1F | 8.12
CN(C)c1nc(-c2ccc(F)cc2)c(-c2ccc(F)cc2)n1/C=C/[C@@H](O)C[C@@H](O)CC(=O)O | 8.09
CC(C)c1c(-c2ccc(F)cc2)nc(-c2ccc(F)cc2)n1/C=C/[C@@H](O)C[C@@H](O)CC(=O)O | 8.05
CC(C)c1c(Br)c(-c2ccc(F)cc2)c(-c2ccc(F)cc2)n1/C=C/[C@@H](O)C[C@@H](O)CC(=O)O | 8.02
Cc1cc(F)ccc1-c1c(-c2ccc(F)cc2)nc(C(C)C)n1/C=C/[C@@H](O)C[C@@H](O)CC(=O)O | 8.08

Per the record, CC(C)c1nc(-c2cccnc2)c(-c2ccc(F)cc2)n1/C=C/[C@@H](O)C[C@@H](O)CC(=O)O has pIC50 of 8.05

Entry CC(C)c1nc(-c2ccc(F)cc2)c(-c2ccc(F)cc2)n1/C=C/[C@H](O)C[C@H](O)CC(=O)O ; pIC50 = 8.21
